System: SK-OV-3 ovarian
Assay: NCI-60 one-dose screen, 48 h (100 = growth as untreated, 0 = no growth, -100 = all killed)
Settings: 10 µM unless noted
Procedure: Growth inhibition of the SK-OV-3 human tumor cell line is measured as a screen for anti-cancer activity. Cells are grown in 96 well plates and exposed to the test compound for 48 hours. Compounds are tested at a single concentration, which is 10^-5 M for most compounds. The reported endpoint is percent growth (GI% or GIPRCNT), where numbers from 0 - 100% represent growth inhibition, and numbers from -100% - 0 represent cell death. For example, a value of 40 represents 60% growth inhibition. […]
Compounds without any hit were thinned out: in the full panel of roughly 83,000, 20% have a hit.
Record Met whenever growth is at 90% or higher; record Not met when lower.

Enquiry: Decide: growth of CCCN1C(=O)/C(=c2\sc3n(c2=O)C2C(NN=3)N(CC)C(=O)N2CC)c2ccccc21 (stereo not given) >= 90%?
Return: Not met

Enquiry: Decide: growth of "CN(C)CCCn1c2nc(=O)[nH]c(=O)c-2nc2cc(Cl)c(Cl)cc21" >= 90%?
Return: Met

Enquiry: Decide: growth of "COc1ccc(-c2[nH]c3ccccc3c2-c2ccc(OC)cc2)cc1" >= 90%?
Return: Not met

Enquiry: Decide: growth of "NC(=O)c1c(NC(=O)/C=C/c2cccs2)sc2c1CCC(=O)C2" >= 90%?
Return: Met

Enquiry: Decide: growth of "Cc1ccc(-c2nc3nc(-c4ccccc4)nc(N4CCN(S(=O)(=O)c5ccccc5)CC4)c3o2)cc1" >= 90%?
Return: Not met

Enquiry: Decide: growth of "COc1ccc(N2CCN(S(=O)(=O)c3oc(-c4ccccc4)nc3C#N)CC2)cc1" >= 90%?
Return: Met

Enquiry: Decide: growth of "COc1cc2cc(NCc3ccncc3)nc(C)c2cc1OC" >= 90%?
Return: Not met

Enquiry: Decide: growth of "N#Cc1ccccc1OCC(=O)Nc1nc2c(s1)COc1ccccc1-2" >= 90%?
Return: Met

Enquiry: Decide: growth of "N=c1c2c(-c3ccccc3)c(-c3ccccc3)oc2ncn1NC(=O)c1cccnc1" >= 90%?
Return: Met
